TARGET_OR_TEST_SYSTEM: MOR (Rattus norvegicus, UniProt P33535)
Construct: from tissue
Sequence (P33535 whole entry): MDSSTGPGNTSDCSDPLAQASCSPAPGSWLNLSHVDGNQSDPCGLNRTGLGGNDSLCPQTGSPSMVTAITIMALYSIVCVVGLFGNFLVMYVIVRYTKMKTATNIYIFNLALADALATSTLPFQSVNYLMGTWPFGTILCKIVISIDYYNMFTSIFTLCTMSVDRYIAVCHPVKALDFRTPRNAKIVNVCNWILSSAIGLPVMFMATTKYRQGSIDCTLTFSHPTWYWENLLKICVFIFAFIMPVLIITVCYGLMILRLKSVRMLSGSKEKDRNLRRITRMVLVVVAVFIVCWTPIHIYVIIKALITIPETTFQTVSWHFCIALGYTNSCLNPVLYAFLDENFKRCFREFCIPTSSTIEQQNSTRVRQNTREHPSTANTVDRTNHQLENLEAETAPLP
RUN_DESCRIPTION: Opioid receptor binding, MOR, rat brain membranes
SETUP_CONDITIONS: Binding Ki MOR, Table 2-6, rat brain membranes
ATTRIBUTE_MEASURED: Ki (nM)

1. CO[C@@]12CC[C@@H](NCCC(=O)OC(C)(C)C)[C@@H]3Oc4c(O)ccc5c4[C@@]31CCN(CC1CC1)[C@@H]2C5 [64-tBu ester] :: 1.52
2. CO[C@@]12CC[C@@H](N[C@@H](CC(=O)O)C(=O)O)[C@@H]3Oc4c(O)ccc5c4[C@@]31CCN(CC1CC1)[C@@H]2C5 [Compound 73] :: 2.24
3. CO[C@@]12CC[C@@H](N[C@@H](C(=O)OC(C)(C)C)C(C)C)[C@@H]3Oc4c(O)ccc5c4[C@@]31CCN(CC1CC1)[C@@H]2C5 [71-tBu ester] :: 1.94

###

TARGET_OR_TEST_SYSTEM: KOR (Cavia porcellus)
Construct: from tissue
RUN_DESCRIPTION: Opioid receptor binding, KOR, guinea pig brain membranes
SETUP_CONDITIONS: Binding Ki KOR, Table 2-6, guinea pig brain membranes
Listed here are compounds together with their documented Ki.
ATTRIBUTE_MEASURED: Ki (µM)

1. CO[C@@]12CC[C@H](N[C@@H](C(=O)OC(C)(C)C)C(C)C)[C@@H]3Oc4c(O)ccc5c4[C@@]31CCN(CC1CC1)[C@@H]2C5 :: 0.0188
2. CC(C)(C)OC(=O)[C@H](Cc1ccccc1)N[C@@H]1CC[C@@]2(O)[C@H]3Cc4ccc(O)c5c4[C@@]2(CCN3CC2CC2)[C@H]1O5 :: 0.0176
3. CO[C@@]12CC[C@@H](N[C@@H](C)C(=O)OC(C)(C)C)[C@@H]3Oc4c(O)ccc5c4[C@@]31CCN(CC1CC1)[C@@H]2C5 :: 0.00968
4. CCO[C@@]12CCC(=O)[C@@H]3Oc4c(O)ccc5c4[C@@]31CCN(CC1CC1)[C@@H]2C5 [Compound 14-OEt-NTX, 14-O-Ethylnaltrexone, reference compound] :: 0.00093
5. CO[C@@]12CC[C@@H](N[C@@H](Cc3ccccc3)C(=O)OC(C)(C)C)[C@@H]3Oc4c(O)ccc5c4[C@@]31CCN(CC1CC1)[C@@H]2C5 :: 0.0131
6. O=C(O)C(Cc1ccccc1)NC1CCC2(O)C3Cc4ccc(O)c5c4C2(CCN3CC2CC2)C1O5 (single isomer, unassigned) [Compound 60] :: 0.00899

###

TARGET_OR_TEST_SYSTEM: MOR (Rattus norvegicus)
Construct: from tissue
RUN_DESCRIPTION: Opioid receptor binding, MOR, rat brain membranes
SETUP_CONDITIONS: in vitro binding assay, rat brain membranes; read-out: Binding Ki (nM) MOR
ATTRIBUTE_MEASURED: Ki (nM)

1) CO[C@@]12CC[C@H](N[C@@H](Cc3ccccc3)C(=O)OC(C)(C)C)[C@@H]3Oc4c(O)ccc5c4[C@@]31CCN(C)[C@@H]2C5 :: 0.5
2) CO[C@@]12CC[C@H](N[C@@H](CCSC)C(=O)OC(C)(C)C)[C@@H]3Oc4c(O)ccc5c4[C@@]31CCN(C)[C@@H]2C5 :: 0.32
3) CN1CCC23c4c5ccc(O)c4OC2C(NCC(=O)OC(C)(C)C)CCC3(OCCCc2ccccc2)C1C5 (centres unmarked) [8-t-Bu ester] :: 1.03
4) CO[C@@]12CC[C@@H](NCCCC(=O)OC(C)(C)C)[C@@H]3Oc4c(O)ccc5c4[C@@]31CCN(C)[C@@H]2C5 :: 0.54
5) CO[C@@]12CC[C@@H](N[C@@H](CCCCN)C(=O)O)[C@@H]3Oc4c(O)ccc5c4[C@@]31CCN(C)[C@@H]2C5 :: 0.53

###

TARGET_OR_TEST_SYSTEM: DOR (Rattus norvegicus)
Construct: from tissue
Sequence (P33533 whole entry): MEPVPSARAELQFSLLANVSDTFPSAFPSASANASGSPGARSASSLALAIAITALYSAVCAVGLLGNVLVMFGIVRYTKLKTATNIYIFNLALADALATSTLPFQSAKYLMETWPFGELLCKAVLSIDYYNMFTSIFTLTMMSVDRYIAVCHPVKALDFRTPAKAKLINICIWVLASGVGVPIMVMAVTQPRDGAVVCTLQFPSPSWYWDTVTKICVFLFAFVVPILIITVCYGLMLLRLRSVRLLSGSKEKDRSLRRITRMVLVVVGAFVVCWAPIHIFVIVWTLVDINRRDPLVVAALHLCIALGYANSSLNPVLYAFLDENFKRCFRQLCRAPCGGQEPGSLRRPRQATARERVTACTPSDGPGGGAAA
RUN_DESCRIPTION: Opioid receptor binding, DOR, rat brain membranes
SETUP_CONDITIONS: in vitro binding assay, rat brain membranes; read-out: Binding Ki (nM) DOR
Listed here are compounds together with their documented Ki.
ATTRIBUTE_MEASURED: Ki (nM)

1. CO[C@@]12CC[C@@H](NCCCC(=O)OC(C)(C)C)[C@@H]3Oc4c(O)ccc5c4[C@@]31CCN(C)[C@@H]2C5 [16-t-Bu ester] :: 1.63
2. CO[C@@]12CC[C@@H](NCC(=O)OCc3ccccc3)[C@@H]3Oc4c(O)ccc5c4[C@@]31CCN(C)[C@@H]2C5 [HS731-benzyl ester] :: 0.74
3. CO[C@@]12CC[C@H](N[C@@H](CCC(=O)OC(C)(C)C)C(=O)OC(C)(C)C)[C@@H]3Oc4c(O)ccc5c4[C@@]31CCN(C)[C@@H]2C5 [19-t-Bu ester] :: 0.32
4. CO[C@@]12CC[C@H](N[C@@H](C(=O)OC(C)(C)C)C(C)C)[C@@H]3Oc4c(O)ccc5c4[C@@]31CCN(C)[C@@H]2C5 [30-t-Bu ester] :: 0.093
5. CO[C@@]12CC[C@H](N[C@@H](CC(N)=O)C(=O)OC(C)(C)C)[C@@H]3Oc4c(O)ccc5c4[C@@]31CCN(C)[C@@H]2C5 [26-t-Bu ester] :: 0.33
6. CO[C@@]12CCC(=O)[C@@H]3Oc4c(O)ccc5c4[C@@]31CCN(C)[C@@H]2C5 [Compound 14-OMO, 14-O-methyloxymorphone, reference compound] :: 4.8
7. CO[C@@]12CC[C@@H](N[C@@H](CCC(=O)OC(C)(C)C)C(=O)OC(C)(C)C)[C@@H]3Oc4c(O)ccc5c4[C@@]31CCN(C)[C@@H]2C5 [20-t-Bu ester] :: 0.19
8. CCO[C@@]12CC[C@@H](NCC(=O)OC(C)(C)C)[C@@H]3Oc4c(O)ccc5c4[C@@]31CCN(C)[C@@H]2C5 [6-t-Bu ester] :: 0.57
9. CO[C@@]12CC[C@H](N[C@@H](CCSC)C(=O)OC(C)(C)C)[C@@H]3Oc4c(O)ccc5c4[C@@]31CCN(C)[C@@H]2C5 [23-t-Bu ester] :: 0.12
10. CO[C@@]12CC[C@@H](N[C@@H](Cc3c[nH]c4ccccc34)C(=O)OC(C)(C)C)[C@@H]3Oc4c(O)ccc5c4[C@@]31CCN(C)[C@@H]2C5 [46-t-Bu ester] :: 0.36
11. CO[C@@]12CC[C@H](N[C@@H](Cc3ccc(O)cc3)C(=O)OC(C)(C)C)[C@@H]3Oc4c(O)ccc5c4[C@@]31CCN(C)[C@@H]2C5 [9-t-Bu ester] :: 0.42
12. CN1CCC23c4c5ccc(O)c4OC2C(NCC(=O)OC(C)(C)C)CCC3(OCCCc2ccccc2)C1C5 (stereo not drawn) [8-t-Bu ester] :: 0.92

###

TARGET_OR_TEST_SYSTEM: KOR (Cavia porcellus, UniProt P41144)
Construct: from tissue
Sequence (P41144 whole entry): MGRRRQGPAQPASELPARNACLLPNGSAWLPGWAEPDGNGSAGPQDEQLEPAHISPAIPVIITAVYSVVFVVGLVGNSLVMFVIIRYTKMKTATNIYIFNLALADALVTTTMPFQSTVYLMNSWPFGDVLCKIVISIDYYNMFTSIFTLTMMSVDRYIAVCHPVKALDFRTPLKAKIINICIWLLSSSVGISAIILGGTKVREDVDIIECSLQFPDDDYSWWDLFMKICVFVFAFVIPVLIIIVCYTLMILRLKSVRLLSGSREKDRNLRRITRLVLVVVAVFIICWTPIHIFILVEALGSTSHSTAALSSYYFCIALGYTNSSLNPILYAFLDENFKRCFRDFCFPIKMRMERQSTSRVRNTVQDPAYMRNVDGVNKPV
RUN_DESCRIPTION: Opioid receptor binding, KOR, guinea pig brain membranes
SETUP_CONDITIONS: in vitro binding assay, guinea pig brain membranes; read-out: Binding Ki (nM) KOR
ATTRIBUTE_MEASURED: log10 Ki (log10 of the value in nM)

1) CO[C@@]12CC[C@H](N[C@H](C(=O)OC(C)(C)C)C(C)C)[C@@H]3Oc4c(O)ccc5c4[C@@]31CCN(C)[C@@H]2C5 :: 1.02
2) CO[C@@]12CC[C@H](N[C@@H](Cc3ccccc3)C(=O)OC(C)(C)C)[C@@H]3Oc4c(O)ccc5c4[C@@]31CCN(C)[C@@H]2C5 :: 1.51
3) CO[C@@]12CC[C@@H](N[C@@H](Cc3c[nH]c4ccccc34)C(=O)OC(C)(C)C)[C@@H]3Oc4c(O)ccc5c4[C@@]31CCN(C)[C@@H]2C5 :: 1.00
4) CCOC(=O)CNC1CCC2(OCCCc3ccccc3)C3Cc4ccc(O)c5c4C2(CCN3C)C1O5 (centres unmarked) [7-Et ester] :: -0.36
5) CO[C@@]12CC[C@H](N[C@@H](CCSC)C(=O)OC(C)(C)C)[C@@H]3Oc4c(O)ccc5c4[C@@]31CCN(C)[C@@H]2C5 :: 1.02
6) CN1CCC23c4c5ccc(O)c4OC2C(NCC(=O)OC(C)(C)C)CCC3(OCCCc2ccccc2)C1C5 (centres unmarked) [7-t-Bu ester] :: 0.10
7) CCCCCCCCOC(=O)CN[C@H]1CC[C@@]2(OC)[C@H]3Cc4ccc(O)c5c4[C@@]2(CCN3C)[C@H]1O5 :: 0.47
8) CO[C@@]12CC[C@@H](NCC(=O)OC(C)(C)C)[C@@H]3Oc4c(O)ccc5c4[C@@]31CCN(C)[C@@H]2C5 :: 1.75
9) CN1CCC23c4c5ccc(O)c4OC2C(NCC(=O)OC(C)(C)C)CCC3(OCCCc2ccccc2)C1C5 (centres unmarked) [8-t-Bu ester] :: 0.31
10) CO[C@@]12CC[C@H](N[C@@H](CCC(=O)OC(C)(C)C)C(=O)OC(C)(C)C)[C@@H]3Oc4c(O)ccc5c4[C@@]31CCN(C)[C@@H]2C5 :: 1.26
11) CO[C@@]12CC[C@H](N[C@H](C(=O)N[C@@H](Cc3ccc(O)cc3)C(=O)OC(C)(C)C)C(C)C)[C@@H]3Oc4c(O)ccc5c4[C@@]31CCN(C)[C@@H]2C5 :: 0.54
